Target: T1, human TNFR2 on the surface of CHO-TNFR2 cells (human, UniProt P20333 23-461)
T1 construct: whole, on cells
T1 sequence (looked up): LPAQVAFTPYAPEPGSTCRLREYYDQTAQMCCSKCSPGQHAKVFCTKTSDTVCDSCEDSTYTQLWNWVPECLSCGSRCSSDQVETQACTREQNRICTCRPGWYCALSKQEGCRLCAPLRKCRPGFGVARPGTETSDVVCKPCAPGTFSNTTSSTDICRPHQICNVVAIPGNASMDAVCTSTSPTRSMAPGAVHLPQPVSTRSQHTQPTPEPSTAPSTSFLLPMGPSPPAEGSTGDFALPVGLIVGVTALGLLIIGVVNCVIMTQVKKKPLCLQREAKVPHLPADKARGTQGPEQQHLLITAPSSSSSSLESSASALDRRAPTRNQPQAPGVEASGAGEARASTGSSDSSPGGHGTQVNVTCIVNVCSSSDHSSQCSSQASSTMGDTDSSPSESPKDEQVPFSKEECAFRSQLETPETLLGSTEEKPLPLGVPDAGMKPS
Test: flow cytometry on CHO-TNFR2 cells; AUC against 224-WT
Items are presented alongside their recorded % Relative activity (Test antibody/WT antibody).
readoutLabel: % Relative activity (Test antibody/WT antibody) (%)

binder | unitAbbreviation | reportedValue
224-Hu3 (antibody, V domains shown, Humanized form of #224; also called VH9 + VL8) VH: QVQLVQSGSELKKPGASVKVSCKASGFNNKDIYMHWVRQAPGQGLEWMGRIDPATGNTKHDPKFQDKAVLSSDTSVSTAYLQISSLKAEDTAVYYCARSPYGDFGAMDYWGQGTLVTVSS VL: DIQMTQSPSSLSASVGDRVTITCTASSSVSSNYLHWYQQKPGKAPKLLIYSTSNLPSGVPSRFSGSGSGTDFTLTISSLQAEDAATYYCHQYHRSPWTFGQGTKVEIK | % | 101
224-Hu7 (antibody, V domains shown, Humanized form of #224; also called VH9 + VL10) VH: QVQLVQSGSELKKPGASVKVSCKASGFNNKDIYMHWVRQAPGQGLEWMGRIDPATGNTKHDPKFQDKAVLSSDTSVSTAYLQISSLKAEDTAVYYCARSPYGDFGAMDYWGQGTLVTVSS VL: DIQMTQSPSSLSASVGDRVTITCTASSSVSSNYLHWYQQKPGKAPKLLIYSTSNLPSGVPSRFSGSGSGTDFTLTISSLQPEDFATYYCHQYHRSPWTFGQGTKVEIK | % | 91
224-Hu4 (antibody, V domains shown, Humanized form of #224; also called VH9 + VL6) VH: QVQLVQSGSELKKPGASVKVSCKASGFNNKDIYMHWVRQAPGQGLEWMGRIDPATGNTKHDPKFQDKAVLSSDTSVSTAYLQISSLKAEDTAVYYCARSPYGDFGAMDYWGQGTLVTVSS VL: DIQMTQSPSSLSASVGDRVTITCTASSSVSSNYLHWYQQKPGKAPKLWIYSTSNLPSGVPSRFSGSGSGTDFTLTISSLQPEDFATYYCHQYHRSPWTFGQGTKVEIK | % | 93.1
224-Hu2 (antibody, V domains shown, Humanized form of #224; also called VH9 + VL7) VH: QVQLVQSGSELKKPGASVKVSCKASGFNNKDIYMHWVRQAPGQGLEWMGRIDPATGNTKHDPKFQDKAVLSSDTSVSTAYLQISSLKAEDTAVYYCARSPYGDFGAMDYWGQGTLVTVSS VL: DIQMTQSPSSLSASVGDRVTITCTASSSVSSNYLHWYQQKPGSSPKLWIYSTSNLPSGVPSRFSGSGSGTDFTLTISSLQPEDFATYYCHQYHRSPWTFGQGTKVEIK | % | 101
224-Hu5 (antibody, V domains shown, Humanized form of #224; also called VH9 + VL9) VH: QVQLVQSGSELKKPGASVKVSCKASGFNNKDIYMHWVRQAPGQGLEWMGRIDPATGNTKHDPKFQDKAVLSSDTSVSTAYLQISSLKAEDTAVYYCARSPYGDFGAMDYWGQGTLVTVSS VL: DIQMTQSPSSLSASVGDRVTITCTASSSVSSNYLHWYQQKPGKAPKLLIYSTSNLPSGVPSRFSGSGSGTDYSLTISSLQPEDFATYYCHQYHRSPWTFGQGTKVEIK | % | 88.9
224-Hu1 (antibody, V domains shown, Humanized form of #224; also called VH8 + VL6) VH: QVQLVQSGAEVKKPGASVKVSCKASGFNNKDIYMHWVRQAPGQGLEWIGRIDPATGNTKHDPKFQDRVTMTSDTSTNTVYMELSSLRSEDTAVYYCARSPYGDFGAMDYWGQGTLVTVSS VL: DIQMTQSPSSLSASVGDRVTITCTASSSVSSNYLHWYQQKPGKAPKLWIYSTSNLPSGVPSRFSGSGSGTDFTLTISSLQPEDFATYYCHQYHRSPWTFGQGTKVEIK | % | 96.2
224-Hu6 (antibody, V domains shown, Humanized form of #224; also called VH8 + VL7) VH: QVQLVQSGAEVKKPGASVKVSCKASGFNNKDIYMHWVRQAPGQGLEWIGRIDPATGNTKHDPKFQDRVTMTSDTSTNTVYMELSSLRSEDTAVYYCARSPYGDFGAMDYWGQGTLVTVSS VL: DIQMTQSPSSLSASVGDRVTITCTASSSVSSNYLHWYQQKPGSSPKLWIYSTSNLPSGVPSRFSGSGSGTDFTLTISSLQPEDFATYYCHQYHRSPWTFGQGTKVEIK | % | 90.4
